- SYSTEM_NAME: phosphorylated EGFR (pEGFR) (Homo sapiens, UniProt P00533)
- Construct: performed to measure phosphorylated EGFR levels using A431 cells (10% FBS); endogenous in cells
- Sequence (P00533 25-1210): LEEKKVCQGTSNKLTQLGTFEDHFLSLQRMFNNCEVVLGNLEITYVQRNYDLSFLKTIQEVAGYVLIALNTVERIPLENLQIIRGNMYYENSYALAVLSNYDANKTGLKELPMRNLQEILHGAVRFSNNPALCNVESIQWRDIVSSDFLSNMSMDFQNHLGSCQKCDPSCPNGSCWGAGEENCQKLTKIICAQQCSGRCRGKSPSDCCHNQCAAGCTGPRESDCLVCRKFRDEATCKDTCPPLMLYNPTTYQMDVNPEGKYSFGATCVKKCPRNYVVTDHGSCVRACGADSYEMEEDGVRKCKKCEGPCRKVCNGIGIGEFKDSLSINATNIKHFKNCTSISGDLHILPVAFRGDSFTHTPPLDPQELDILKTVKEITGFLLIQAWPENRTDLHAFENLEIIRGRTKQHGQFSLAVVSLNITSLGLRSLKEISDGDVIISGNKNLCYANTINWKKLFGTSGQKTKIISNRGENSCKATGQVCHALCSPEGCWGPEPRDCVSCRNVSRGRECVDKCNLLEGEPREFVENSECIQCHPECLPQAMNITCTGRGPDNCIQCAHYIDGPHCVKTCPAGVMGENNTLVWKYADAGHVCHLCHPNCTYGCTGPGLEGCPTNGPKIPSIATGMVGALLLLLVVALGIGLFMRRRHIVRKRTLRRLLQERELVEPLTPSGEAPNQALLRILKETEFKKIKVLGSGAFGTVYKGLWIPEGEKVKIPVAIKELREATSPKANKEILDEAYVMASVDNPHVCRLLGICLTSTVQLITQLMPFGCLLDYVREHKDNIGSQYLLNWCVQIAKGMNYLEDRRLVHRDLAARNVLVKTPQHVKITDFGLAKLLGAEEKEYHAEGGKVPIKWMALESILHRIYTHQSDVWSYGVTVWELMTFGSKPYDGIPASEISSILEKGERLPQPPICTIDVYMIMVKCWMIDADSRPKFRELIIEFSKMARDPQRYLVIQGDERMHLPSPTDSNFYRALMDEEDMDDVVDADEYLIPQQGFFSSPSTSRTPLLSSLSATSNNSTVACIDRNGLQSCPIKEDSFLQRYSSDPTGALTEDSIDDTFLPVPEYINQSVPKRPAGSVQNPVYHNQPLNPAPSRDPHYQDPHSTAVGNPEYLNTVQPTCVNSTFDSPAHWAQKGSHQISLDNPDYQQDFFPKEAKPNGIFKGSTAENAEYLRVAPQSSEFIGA
- EXPERIMENT_NOTES: Detection of phosphorylated EGFR (pEGFR) by AlphaLISA in EGF-stimulated A431 cells
- DETAILS: A431 cells (10% FBS), 4 hours incubation, EGF 30 ng/mL for 10 minutes
pIC50: −log10 of the molar value.
OBSERVABLE: pIC50

INSERT INTO results (compound_string, system_name, result) VALUES
  ('Cc1cc(Nc2ncnc3ccc4c(c23)OC[C@@H]2CN(C)CCN42)ccc1Oc1ccn2ncnc2c1', 'phosphorylated EGFR (pEGFR) (Homo sapiens, UniProt P00533)', '< 5.00'),
  ('Cc1cc(Nc2ncnc3ccc4c(c23)OC[C@@H]2CN4CCN2)ccc1Oc1ccc2c(c1)ncn2C', 'phosphorylated EGFR (pEGFR) (Homo sapiens, UniProt P00533)', '< 5.00'),
  ('Cc1cc(Nc2ncnc3ccc4c(c23)OC[C@H]2CN4CCN2)ccc1Oc1ccn2ncnc2c1', 'phosphorylated EGFR (pEGFR) (Homo sapiens, UniProt P00533)', '< 5.00'),
  ('Cc1cc(Nc2ncnc3cc4c(c(F)c23)N2CCOC[C@H]2CO4)ccc1Oc1ccn2ncnc2c1', 'phosphorylated EGFR (pEGFR) (Homo sapiens, UniProt P00533)', '< 5.00'),
  ('Cc1cc(Nc2ncnc3ccc4c(c23)OC[C@H]2CN4CCN2)ccc1Oc1ccc2c(c1)ncn2C', 'phosphorylated EGFR (pEGFR) (Homo sapiens, UniProt P00533)', '< 5.00'),
  ('Cc1cc(Nc2ncnc3ccc4c(c23)OC[C@H]2CN4CCO2)ccc1Oc1ccn2ncnc2c1', 'phosphorylated EGFR (pEGFR) (Homo sapiens, UniProt P00533)', '< 5.00'),
  ('Cc1cc(Nc2ncnc3cnc4c(c23)O[C@H]2CCNC[C@H]2N4C)ccc1Oc1ccc2c(c1)ncn2C', 'phosphorylated EGFR (pEGFR) (Homo sapiens, UniProt P00533)', '< 5.00'),
  ('Cc1cc(Nc2ncnc3cc4c(c(F)c23)N2CCN(C)C[C@H]2CO4)ccc1Oc1ccn2ncnc2c1', 'phosphorylated EGFR (pEGFR) (Homo sapiens, UniProt P00533)', '< 5.00'),
  ('Cc1cc(Nc2ncnc3ccc4c(c23)OC[C@H]2CCCCN42)ccc1Oc1ccn2ncnc2c1', 'phosphorylated EGFR (pEGFR) (Homo sapiens, UniProt P00533)', '< 5.00'),
  ('Cc1cc(Nc2ncnc3cc4c(nc23)N2CCCC[C@H]2CO4)ccc1Oc1ccn2ncnc2c1', 'phosphorylated EGFR (pEGFR) (Homo sapiens, UniProt P00533)', '< 5.00'),
  ('Cc1cc(Nc2ncnc3ccc4c(c23)OC[C@H]2CN4CCN2C(=O)/C=C/C2CN(C)C2)ccc1Oc1ccn2ncnc2c1', 'phosphorylated EGFR (pEGFR) (Homo sapiens, UniProt P00533)', 6.15),
  ('Cc1cc(Nc2ncnc3ccc4c(c23)OC[C@@H]2CNCCN42)ccc1Oc1ccn2ncnc2c1', 'phosphorylated EGFR (pEGFR) (Homo sapiens, UniProt P00533)', '< 5.00'),
  ('CN(C)C/C=C/C(=O)N1CCN2C[C@@H]1COc1c2ccc2ncnc(Nc3cc(F)c(Oc4ccn5ncnc5c4)cc3F)c12', 'phosphorylated EGFR (pEGFR) (Homo sapiens, UniProt P00533)', 6.66),
  ('CC#CC(=O)N1CCN2c3cc4c(Nc5ccc(Oc6ccn7ncnc7c6)c(C)c5)ncnc4cc3OC[C@@H]2C1', 'phosphorylated EGFR (pEGFR) (Homo sapiens, UniProt P00533)', 6.60),
  ('CN(C)C/C=C/C(=O)N1CCN2C[C@@H]1COc1c2ccc2ncnc(Nc3ccc(Oc4ccn5ncnc5c4)cc3F)c12', 'phosphorylated EGFR (pEGFR) (Homo sapiens, UniProt P00533)', 6.47);
